SYSTEM NAME: interaction between p53 and MDM2 proteins (Homo sapiens, UniProt Q00987)
Sequence (Q00987 whole entry): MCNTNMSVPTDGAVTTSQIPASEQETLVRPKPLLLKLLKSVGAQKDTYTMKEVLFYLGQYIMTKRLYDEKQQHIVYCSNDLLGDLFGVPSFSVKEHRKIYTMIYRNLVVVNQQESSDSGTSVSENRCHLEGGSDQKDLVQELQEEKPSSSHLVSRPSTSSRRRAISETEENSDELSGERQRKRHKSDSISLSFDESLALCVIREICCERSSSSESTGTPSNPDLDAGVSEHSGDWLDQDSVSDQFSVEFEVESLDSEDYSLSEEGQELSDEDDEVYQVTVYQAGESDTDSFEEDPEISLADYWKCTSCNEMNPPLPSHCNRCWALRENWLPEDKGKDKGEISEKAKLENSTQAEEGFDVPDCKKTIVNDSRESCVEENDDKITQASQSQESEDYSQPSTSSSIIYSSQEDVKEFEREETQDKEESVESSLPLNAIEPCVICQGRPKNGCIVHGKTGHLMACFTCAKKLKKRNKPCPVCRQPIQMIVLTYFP
TEST PROTOCOL: HTRF assay of inhibition of the p53-MDM2 interaction (GST-MDM2 / biotinylated p53 peptide)
ASSAY SETUP: recombinant GST-tagged MDM2 and biotinylated p53 peptide, bsa:0.02%
pIC50: −log10 of the molar value.
RECORDED METRIC: pIC50

COMPOUND: COc1cc(C(=O)O)ccc1NC(=O)[C@@H]1N[C@@H](CC(C)(C)C)[C@@]2(C(=O)Nc3cc(Cl)ccc32)[C@H]1c1cc(F)cc(Cl)c1 (racemic)
pIC50: 8.15

A. CC(C)(C)C[C@@H]1N[C@@H](C(=O)Nc2cccc(C(N)=O)c2)[C@H](c2cccc(Cl)c2F)[C@]12C(=O)Nc1cc(Cl)ccc12 (racemic)
B. CC(C)(C)C[C@@H]1N[C@@H](C(=O)Nc2nc(C(=O)O)cs2)[C@H](c2cccc(Cl)c2F)[C@]12C(=O)Nc1cc(Cl)ccc12 (racemic)
Inquiry: // compare: A vs B , metric pIC50, want the smaller Respond using the label that marks the chosen record.
Reply text: B

---

SYSTEM NAME: interaction between p53 and MDM2 proteins (Homo sapiens, UniProt Q00987)
TEST PROTOCOL: HTRF assay of inhibition of the p53-MDM2 interaction (GST-MDM2 / biotinylated p53 peptide)
ASSAY SETUP: recombinant GST-tagged MDM2 and biotinylated p53 peptide, bsa:0.02%
pIC50: −log10 of the molar value.
RECORDED METRIC: pIC50

COMPOUND: CC(C)(C)C[C@@H]1N[C@@H](C(=O)Nc2cnc(C(N)=O)nc2)[C@H](c2cccc(Cl)c2F)[C@]12C(=O)Nc1cc(Cl)ccc12 (racemic)
RECORDED METRIC: pIC50
MEAS VALUE: 7.80
--
COMPOUND: CC(C)(C)C[C@@H]1N[C@@H](C(=O)Nc2ccc(C(N)=O)cc2)[C@H](c2cccc(Cl)c2)[C@]12C(=O)Nc1cc(Cl)ccc12 (racemic) [Example 65A]
RECORDED METRIC: pIC50
MEAS VALUE: 8.05
--
COMPOUND: COc1cc(C(N)=O)ccc1NC(=O)[C@@H]1N[C@@H](CC(C)(C)C)[C@@]2(C(=O)Nc3c2ccc(Cl)c3F)[C@H]1c1cccc(Cl)c1F (racemic)
RECORDED METRIC: pIC50
MEAS VALUE: 7.82
--
COMPOUND: COC(=O)c1ccc(NC(=O)[C@@H]2N[C@@H](CC(C)(C)C)[C@@]3(C(=O)Nc4cc(Cl)ccc43)[C@H]2c2cccc(Cl)c2F)cc1OC (racemic)
RECORDED METRIC: pIC50
MEAS VALUE: 7.89

I. COc1cc(C(=O)O)ccc1NC(=O)[C@@H]1N[C@@H](CC(C)(C)C)[C@@]2(C(=O)Nc3cc(Cl)ccc32)[C@H]1c1cccc(Cl)c1F [Example 111]
II. CCCCOc1cc(C(N)=O)ccc1NC(=O)[C@@H]1N[C@@H](CC(C)(C)C)[C@@]2(C(=O)Nc3cc(Cl)ccc32)[C@H]1c1cccc(Cl)c1F (racemic)
Inquiry: // compare: I vs II , metric pIC50, want the smaller Respond using the label that marks the chosen record.
Reply text: II

---

SYSTEM NAME: interaction between p53 and MDM2 proteins (Homo sapiens, UniProt Q00987)
TEST PROTOCOL: HTRF assay of inhibition of the p53-MDM2 interaction (GST-MDM2 / biotinylated p53 peptide)
Format: binding
ASSAY SETUP: recombinant GST-tagged MDM2 and biotinylated p53 peptide, bsa:0.02%
pIC50: −log10 of the molar value.
RECORDED METRIC: pIC50

MOLECULE: COc1cc(OCCO)ccc1NC(=O)[C@@H]1N[C@@H](CC(C)(C)C)[C@@]2(C(=O)Nc3cc(Cl)ccc32)[C@H]1c1cccc(Cl)c1F
pIC50: 8.30
--
MOLECULE: CC(C)(CO)C[C@@H]1N[C@@H](C(=O)Nc2ccc(C#N)cc2)[C@H](c2cccc(Cl)c2F)[C@]12C(=O)Nc1cc(Cl)ccc12 (racemic)
pIC50: 7.89
--
MOLECULE: COC(=O)c1ccc(NC(=O)[C@@H]2N[C@@H](CC(C)(C)C)[C@@]3(C(=O)Nc4cc(Cl)ccc43)[C@H]2c2cccc(Cl)c2F)c(OC)c1 (racemic)
pIC50: 7.96

I. COc1cc(C(N)=O)ccc1NC(=O)[C@@H]1N[C@@H](CC(C)(C)C)[C@@]2(C(=O)Nc3cc(Cl)ccc32)[C@H]1c1cc(F)cc(Cl)c1 [Example 148]
II. COC(=O)c1ccc(NC(=O)[C@@H]2N[C@@H](CC(C)(C)C)[C@@]3(C(=O)Nc4cc(Cl)ccc43)[C@H]2c2cc(F)cc(Cl)c2)c(OC)c1 (racemic)
Inquiry: Exercise: compare I and II ; which one has the greater pIC50? Respond using the label that marks the chosen record.
Reply text: I
(I: 8.30, II: 7.82)

---

SYSTEM NAME: interaction between p53 and MDM2 proteins (Homo sapiens)
TEST PROTOCOL: HTRF assay of inhibition of the p53-MDM2 interaction (GST-MDM2 / biotinylated p53 peptide)
ASSAY SETUP: recombinant GST-tagged MDM2 and biotinylated p53 peptide, bsa:0.02%
pIC50: −log10 of the molar value.
RECORDED METRIC: pIC50

A. CC(C)(C)C[C@@H]1N[C@@H](C(=O)Nc2ccc(C#N)cc2)[C@H](c2cccc(Cl)c2F)[C@]12C(=O)Nc1cc(Cl)c(F)cc12 (racemic)
B. COc1cc(-n2cnnn2)ccc1NC(=O)[C@@H]1N[C@@H](CC(C)(C)C)[C@@]2(C(=O)Nc3cc(Cl)ccc32)[C@H]1c1cccc(Cl)c1F (racemic)
Inquiry: // compare: A vs B , metric pIC50, want the smaller Respond using the label that marks the chosen record.
Reply text: A
(A: 7.80, B: 8.10)

A. CC(C)(C)C[C@@H]1N[C@@H](C(=O)Nc2ccc(C(N)=O)cc2OC(F)(F)F)[C@H](c2cccc(Cl)c2F)[C@]12C(=O)Nc1cc(Cl)ccc12 (racemic)
B. CNc1cc(C(=O)OC)ccc1NC(=O)[C@@H]1N[C@@H](CC(C)(C)C)[C@@]2(C(=O)Nc3cc(Cl)ccc32)[C@H]1c1cccc(Cl)c1F (racemic)
Inquiry: // compare: A vs B , metric pIC50, want the smaller Respond using the label that marks the chosen record.
Reply text: B

---

SYSTEM NAME: interaction between p53 and MDM2 proteins (Homo sapiens, UniProt Q00987)
TEST PROTOCOL: HTRF assay of inhibition of the p53-MDM2 interaction (GST-MDM2 / biotinylated p53 peptide)
Assay type: binding
ASSAY SETUP: recombinant GST-tagged MDM2 and biotinylated p53 peptide, bsa:0.02%
RECORDED METRIC: IC50 (nM)

MOLECULE: COc1cc(C#N)ccc1NC(=O)[C@@H]1N[C@@H](CC(C)(C)C)[C@@]2(C(=O)Nc3cc(Cl)ccc32)[C@H]1c1cccc(Cl)c1F (racemic)
UNIT OF MEASURE: nM
IC50: 23

a. CCCCOc1cc(C(=O)OC)ccc1NC(=O)[C@@H]1N[C@@H](CC(C)(C)C)[C@@]2(C(=O)Nc3cc(Cl)ccc32)[C@H]1c1cccc(Cl)c1F (racemic)
b. CC(C)(C)C[C@@H]1N[C@@H](C(=O)Nc2ccc(C#N)cc2)[C@H](c2ccc(F)c(Cl)c2)[C@]12C(=O)Nc1cc(Cl)ccc12 (racemic)
Inquiry: Exercise: compare a and b ; which one has the greater IC50? Respond using the label that marks the chosen record.
Reply text: b

---

SYSTEM NAME: interaction between p53 and MDM2 proteins (Homo sapiens, UniProt Q00987)
TEST PROTOCOL: HTRF assay of inhibition of the p53-MDM2 interaction (GST-MDM2 / biotinylated p53 peptide)
ASSAY SETUP: recombinant GST-tagged MDM2 and biotinylated p53 peptide, bsa:0.02%
pIC50: −log10 of the molar value.
RECORDED METRIC: pIC50

MOLECULE: CC(C)(C)C[C@@H]1N[C@@H](C(=O)Nc2ccc(I)cc2)[C@H](c2cccc(Cl)c2F)[C@]12C(=O)Nc1cc(Cl)ccc12 (racemic)
MEAS VALUE: 7.72

MOLECULE: COc1cc(C#N)ccc1NC(=O)[C@@H]1N[C@@H](CC(C)(C)C)[C@@]2(C(=O)Nc3cc(Cl)c(F)cc32)[C@H]1c1cccc(Cl)c1F (racemic)
MEAS VALUE: 7.82

MOLECULE: COc1cc(N2CCOCC2)ccc1NC(=O)[C@@H]1N[C@@H](CC(C)(C)C)[C@@]2(C(=O)Nc3cc(Cl)ccc32)[C@H]1c1cccc(Cl)c1F (racemic)
MEAS VALUE: 7.82

---

SYSTEM NAME: interaction between p53 and MDM2 proteins (Homo sapiens)
TEST PROTOCOL: HTRF assay of inhibition of the p53-MDM2 interaction (GST-MDM2 / biotinylated p53 peptide)
ASSAY SETUP: recombinant GST-tagged MDM2 and biotinylated p53 peptide, bsa:0.02%
RECORDED METRIC: IC50 (nM)

COMPOUND: COC(=O)c1ccc(NC(=O)[C@@H]2N[C@@H](CC(C)(C)C)[C@@]3(C(=O)Nc4cc(Br)ccc43)[C@H]2c2cccc(Cl)c2F)c(OC)c1 (racemic) [Example 122]
UNIT OF MEASURE: nM
MEAS VALUE: 13

a. COc1cc(C(N)=O)ccc1NC(=O)[C@@H]1N[C@@H](CC(C)(C)C)[C@@]2(C(=O)Nc3cc(Cl)cc(F)c32)[C@H]1c1cccc(Cl)c1F (racemic) [Example 76]
b. COc1cc(C(N)=O)ccc1NC(=O)[C@@H]1N[C@@H](CC(C)(C)C)[C@@]2(C(=O)Nc3cc(Cl)ccc32)[C@H]1c1cc(F)cc(Cl)c1 (racemic) [Example 115]
Inquiry: // compare: a vs b , metric IC50, want the smaller Respond using the label that marks the chosen record.
Reply text: b
